# System: HT-29
# measurement.notes: Cytotoxicity against human HT-29 cells after 72 hrs by MTS assay
# Format: functional, cell-based
# measurement.parameters: HT-29, 72 h
property.measured: pIC50
API: returns pIC50 as number; meaning -log10 of concentration in mol/L.

Q: Item under review: CN(C)CCN(Cc1ccc(Cl)cc1)c1ccccn1.Cl [CHLORPYRAMIN HYDROCHLORIDE] . Reported pIC50?
A: 6.00

###

# Tested on: SAOS-2
# measurement.notes: Cytotoxicity against human Saos2 cells after 72 hrs by MTS assay
# Assay type: functional, cell-based
# measurement.parameters: SAOS-2, 72 h
property.measured: IC50 (nM)
Reply numerically in nM, unit not repeated.

Q: Item under review: CN(C)CCN(Cc1ccc(Cl)cc1)c1ccccn1.Cl [CHLORPYRAMIN HYDROCHLORIDE] . Reported IC50?
A: 1000

###

# Tested on: MDA-MB-231
# measurement.notes: Cytotoxicity against human MDA-MB-231 cells after 72 hrs by MTS assay
# Format: functional, cell-based
# measurement.parameters: MDA-MB-231, 72 h
property.measured: pIC50
API: returns pIC50 as number; meaning -log10 of concentration in mol/L.

Q: What value of pIC50 on MDA-MB-231 does CN(C)CCN(Cc1ccc(Cl)cc1)c1ccccn1.Cl [CHLORPYRAMIN HYDROCHLORIDE] have?
A: 6.00

###

# System: MIA PaCa-2
# measurement.notes: Cytotoxicity against human MIAPaCa2 cells after 72 hrs by MTS assay
# Format: functional, cell-based
# measurement.parameters: MIA PaCa-2, 72 h
property.measured: pIC50
API: returns pIC50 as number; meaning -log10 of concentration in mol/L.

Q: What value of pIC50 on MIA PaCa-2 does CN(C)CCN(Cc1ccc(Cl)cc1)c1ccccn1.Cl [CHLORPYRAMIN HYDROCHLORIDE] have?
A: 6.00

###

# Tested on: COLO 205
# measurement.notes: Cytotoxicity against human COLO205 cells assessed as cell viability after 72 hrs by MTS assay
# Assay type: functional, cell-based
# measurement.parameters: COLO 205, 72 h
property.measured: IC50

Q: What value of IC50 on COLO 205 does CN(C)CCN(Cc1ccc(Cl)cc1)c1ccccn1.Cl [CHLORPYRAMIN HYDROCHLORIDE] have?
A: 1000 nM
